Assay: acute toxicity LD50 in rats
Details: rat, in vivo, po, os
Quick reference for LD50 among some compounds

COMPOUND: COC12CC(CNc3ncc([N+](=O)[O-])cn3)CN(C)C1Cc1cn(C)c3cccc2c13 (stereo not shown)
UNIT: mg/kg
LD50: 200
//
COMPOUND: Cc1cnc(NCC2CC3c4cccc5c4c(cn5C)CC3N(C)C2)nc1 (stereo not shown)
UNIT: mg/kg
LD50: 140
//
COMPOUND: COC12CC(CNc3ncccn3)CN(C)C1Cc1cn(C)c3cccc2c13 (stereo not shown)
UNIT: mg/kg
LD50: 250
//
COMPOUND: CN1CC(CNc2ncc(C#N)cn2)CC2c3cccc4c3c(cn4C)CC21 (stereo not shown)
UNIT: mg/kg
LD50: 35
//
COMPOUND: COC12CC(CNc3ncc(Br)cn3)CN(C)C1Cc1cn(C)c3cccc2c13 (stereo not shown)
UNIT: mg/kg
LD50: 230
//
COMPOUND: COC12CC(CNc3ncc(C#N)cn3)CN(C)C1Cc1cn(C)c3cccc2c13 (stereo not shown)
UNIT: mg/kg
LD50: 160
//
COMPOUND: CN1CC(CNc2ncc(N)cn2)CC2c3cccc4c3c(cn4C)CC21 (stereo not shown)
UNIT: mg/kg
LD50: 140
